- Assayed System: T1, recombinant human TIGIT (human, UniProt Q495A1 22-141, limits assumed)
- T1 construct: recombinant human TIGIT used in Carterra SPR; also called hTIGIT
- T1 sequence (looked up): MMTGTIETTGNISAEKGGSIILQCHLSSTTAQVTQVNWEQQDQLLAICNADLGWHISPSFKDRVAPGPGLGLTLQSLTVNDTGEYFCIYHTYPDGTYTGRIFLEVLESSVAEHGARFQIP
- Assay Explanation: SPR Carterra, average
What kon was measured for each of the following?
Please reply with the bare figure in M⁻¹ s⁻¹ and do not write the unit itself.

Query: Give the measured kon for TIGIT-SC179 (Fc fusion, VHH-Fc fusion in assay) VHH: EVQLVESGGGLVQPGGSLRLSCAASGFTFSPSWMGWFRQAPGKEREWVASVLRGGYTWYADSVKGRFTISADNSKNTAYLQMNSLKPEDTAVYYCASEVASGETDYWGQGTLVTVSS
Result: 50400

Query: Give the measured kon for TIGIT-SC51 (Fc fusion, VHH-Fc fusion in assay) VHH: EVQLVESGGGLVQPGGSLRLSCAASGRTEANYAMGWFRQAPGKEREFVAAISWDGGATAYADSVKGRFTISADNSKNTAYLQMNSLKPEDTAVYYCGDYEGHWGQGTLVTVSS
Result: 2.1e+06
